protocol_summary: yeast display, Sf9 membrane polyspecificity reagent, FACS + sequencing; frameworks hold sequencing errors
endpoint_name: polyreactivity (PSR sort gate)

QVQLVESGGGLVQAGGSLRLSCAASGRSFAPYAMGWSRQAPGKERELVAAISLSTTRTYYADSVKGRFTISRDNAKNTVYLQMNSLKPEDTAVYYCAAETFTGYFFLRHDYWGQGTQVTVSS	high polyreactivity
QVQLVESGGGLVQAGGSLRLSCAASGSTSNIYGMGWYRQAPGKERELVAGISRRGSSTYYADSVKGRFTISRDNAKNSVYLHMNSLKPEDTAVYYCNTRSGGYKHRYDYWGQGTQVTVSS	high polyreactivity
QVQLVESGGGLVQAGGSLRLSCAASGRIFRVNAMGWYRQAPGKERELVAAINFSGTSTYYADSVKGRFTISRDNAKNTVYLQMNSLKPEDTAVYYCNTASYVSWYVHYYYWGQGTQVTVSS	low polyreactivity
QVQLVESGGGLVQAGGSLRLSCAASGRTFVYNAMGWYRQAPGKERELVATIRSSGGSTYYADSVKGRFTISRDNAKNTVYLQMNSLKPEDTAVYYCAARWRPYGKFYYWGQGTQVTVSS	high polyreactivity
QVHLVESGGGLVQAGGSLRLSCASTGRISTYYTMVWYRQAPGKERELVAAISWSGTSTYYADSVKGRFTISRDNAKNTVYLQMNSLKPEDTAVYYCNAYFRPRYGYWGQGTQVTVSS	high polyreactivity
RVQLVESGGGLFHAGGSLRLSCAASGRTFPTYDMGWYRQAPGKERELVAAINWSGGSTYYADSVKGRFTISRDNAKNTVYLQINSLKPEDTAVYYCNAELLRPSTLGVYLARNYWGQGSQVTVSS	low polyreactivity
QVQLVESGGGLVQAGGSLRLSCAASGSIFRRYAMGWYRQAPGKEREFVAAITRSGGGTYYADSVKGRFTLSRDNAKNTVYLQMNSLIPEDTAVYYCAKDVFVQRSRYPEGDYWGQGTQVTVSS	high polyreactivity
QVQLVESGGGLVQAGGSLRLSCAASGRIFRRYAMGWYRQAPGKERELVAAINGRGTTTYYADSVKGRFTISRDNAKNTVYLQMNSLKPEDTAVYYCAAENTIRYDREYDYWGQGNQVTVSS	high polyreactivity
QVQLVESGGGLVQAGGSLRLSCAASGSTLDSYARGWYRQAPGTERELVAVIDTGGTTNYADSVKGRFTISRDNAKNTVYLQMNSLKPEDTAVYYCAADYAYYGYWFEGYDYWGQGTQVTVSS	low polyreactivity
QVQLVESGGGLVQAGGSLRLSCAASGFTFRYYAMGRSRQAPGKERELVAAITGSGVNTYYADSVKGRFTISRDNAKNTVYLQMNSLKPEDTAVYYCAAESESDPLFDRYYWGQGTQVTVSS	high polyreactivity
QVQHVESGGGLVQAGGSLRLSCAASGSIIVRYAMGWYRQAPGKERELVASISKRGGSTYYADSVKGRFTISRDNAKNTVYLQMKSLKPDDTAVYYCAAVGYYLVKFDYWGQGTQVTVSS	high polyreactivity

---

protocol_summary: yeast display, Sf9 membrane polyspecificity reagent, FACS + sequencing; frameworks hold sequencing errors
endpoint_name: polyreactivity (PSR sort gate)

QVQHVESGGGLVQAGGSLRLSCAASGSTLGGYAMGWYRQAPGKERELVAAIRWRDGRTYYADSVKGRFTISRDNPKNTVYLQMNSLKPEDTAVYYCAAQYYLARVSFDYWGQGTQVTVSS	high polyreactivity
QVQLVESGGGLVQAGGSLRLSCAASGGTFGSNAMGWYRQAPGKERELVARISGRGGRTYYADSVKGRFTISRDNAKNTVYLQMNSLKPEDTAVYYCAATYIIWGQGTQVNVSS	high polyreactivity
